- tested.target: Neu5Ac(a2-6)Gal(b1-4)GlcNAc(b1-6)GalNAc
- assay.overview: glycan array binding signal (z-score within array); higher = stronger binding
- condition.info: glycan notation: IUPAC condensed, linker removed
This is one part of a sample in which the strongest signals are shown more often than they occur.
As shown below, each of these binders has a reported glycan array binding signal (z-score) value.
parameter.measured: glycan array binding signal (z-score)

binder	parameter.measured	recorded.measurement
Erv46-EDTA (Saccharomyces cerevisiae), P39727 (protein) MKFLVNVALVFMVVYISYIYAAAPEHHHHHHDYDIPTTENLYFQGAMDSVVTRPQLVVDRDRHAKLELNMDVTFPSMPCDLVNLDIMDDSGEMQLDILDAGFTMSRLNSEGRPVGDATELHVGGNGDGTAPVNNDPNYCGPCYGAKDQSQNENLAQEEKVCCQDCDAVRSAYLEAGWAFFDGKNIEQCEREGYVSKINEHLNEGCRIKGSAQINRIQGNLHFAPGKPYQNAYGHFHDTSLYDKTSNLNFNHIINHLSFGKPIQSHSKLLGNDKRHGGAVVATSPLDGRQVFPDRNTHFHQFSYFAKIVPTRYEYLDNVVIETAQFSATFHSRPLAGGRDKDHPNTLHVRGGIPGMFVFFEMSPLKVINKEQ	glycan array binding signal (z-score)	-0.855
AT1G73650(15) (Arabidopsis thaliana), F4HRY1 (protein) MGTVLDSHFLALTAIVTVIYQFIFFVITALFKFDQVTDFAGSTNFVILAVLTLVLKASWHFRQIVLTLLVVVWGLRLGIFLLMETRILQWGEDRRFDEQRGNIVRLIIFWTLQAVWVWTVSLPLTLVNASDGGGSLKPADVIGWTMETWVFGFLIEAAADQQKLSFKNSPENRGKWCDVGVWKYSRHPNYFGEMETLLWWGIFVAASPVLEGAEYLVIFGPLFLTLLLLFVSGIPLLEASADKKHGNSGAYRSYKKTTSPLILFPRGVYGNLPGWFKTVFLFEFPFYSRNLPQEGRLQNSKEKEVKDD	glycan array binding signal (z-score)	7.33
